The measured values listed here are drawn from paper PMC5394233.

Target: flPOT1 C591W;TPP1(87) (Homo sapiens;Homo sapiens, UniProt Q9NUX5;Q96AP0 1-634;1-458, C591W|)
Sequence (Q9NUX5 whole entry C591W, chain 1 of 2): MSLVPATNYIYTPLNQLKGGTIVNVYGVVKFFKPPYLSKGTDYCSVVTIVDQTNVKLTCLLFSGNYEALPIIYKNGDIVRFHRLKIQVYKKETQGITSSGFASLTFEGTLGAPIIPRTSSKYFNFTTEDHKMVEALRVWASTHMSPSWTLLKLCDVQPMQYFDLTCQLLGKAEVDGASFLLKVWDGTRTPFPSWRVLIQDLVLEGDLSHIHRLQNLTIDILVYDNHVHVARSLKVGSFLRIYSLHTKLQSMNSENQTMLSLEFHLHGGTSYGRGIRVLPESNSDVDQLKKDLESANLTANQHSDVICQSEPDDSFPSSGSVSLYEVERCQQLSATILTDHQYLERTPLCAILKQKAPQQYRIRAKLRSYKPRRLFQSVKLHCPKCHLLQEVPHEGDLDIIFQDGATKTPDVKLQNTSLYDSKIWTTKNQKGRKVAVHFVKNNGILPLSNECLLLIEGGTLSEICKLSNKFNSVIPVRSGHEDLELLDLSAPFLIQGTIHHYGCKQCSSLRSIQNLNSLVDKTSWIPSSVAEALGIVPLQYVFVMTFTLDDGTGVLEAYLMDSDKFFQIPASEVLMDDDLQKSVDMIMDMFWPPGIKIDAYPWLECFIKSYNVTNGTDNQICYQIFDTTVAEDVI
Sequence (Q96AP0 whole entry, chain 2 of 2): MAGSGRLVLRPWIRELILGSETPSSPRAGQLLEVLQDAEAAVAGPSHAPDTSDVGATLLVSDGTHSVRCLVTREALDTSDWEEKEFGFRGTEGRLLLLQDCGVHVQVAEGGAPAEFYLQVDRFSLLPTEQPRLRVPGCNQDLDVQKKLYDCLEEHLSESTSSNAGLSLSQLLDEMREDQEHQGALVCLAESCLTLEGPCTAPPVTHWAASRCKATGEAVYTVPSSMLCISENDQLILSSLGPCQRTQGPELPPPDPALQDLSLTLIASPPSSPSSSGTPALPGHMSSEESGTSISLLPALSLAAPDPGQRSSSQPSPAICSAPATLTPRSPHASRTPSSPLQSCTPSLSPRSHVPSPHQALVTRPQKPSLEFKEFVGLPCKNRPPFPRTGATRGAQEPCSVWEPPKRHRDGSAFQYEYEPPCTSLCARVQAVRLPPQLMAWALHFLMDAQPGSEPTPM
Test: fluorescence polarization; FP: 20 mM Hepes pH 7.5, 100 mM KCl, 2 mM MgCl2, 1 mM EDTA, 2 mM DTT, 1 mg/ml BSA, 5% glycerol, 75 nM polyT50 competitor, 2.5 nM probe, room temperature 30 min
Conditions: protein: recombinant;recombinant, tags: N-terminal His6-pMocr, TEV-cleaved;N-terminal His6-MBP, copies: 1;1, label: 5' 6-FAM, single strand
MEASURED_ATTRIBUTE: pKd
Field pKd (float): negative decimal logarithm of the concentration in molar.

Query: Tell me the measured pKd of TTAGGGTTAGGGTTAGGG (ssDNA) [telomeric 18mer (TTAGGG)3] , please.
Response: 7.81
